Would you kindly list melting point for each of these compounds?

Fill in: melting point of Cc1[nH]c2c3c(c(O)cc2c1C#N)[C@H]1C[C@@H]2[C@@]4(C)CCC[C@@](C)(C(=O)O)[C@@H]4CC[C@@]32C=C1C(C)C is ___
127 to 129 °C

Fill in: melting point of COC(=O)c1c(C)[nH]c2c3c(c(OCCC#N)cc12)C1CC2C3(C=C1C(C)C)CCC1C(C)(C(=O)OC)CCCC12C (stereo not drawn) is ___
127 to 129 °C

Fill in: melting point of CCOC(=O)c1c(C)[nH]c2c3c(c(O)cc12)C1CC2C3(C=C1C(C)C)CCC1C(C)(C(=O)O)CCCC12C (stereo not drawn) is ___
131 to 133 °C

Fill in: melting point of C#CCOC(=O)C1(C)CCCC2(C)C1CCC13C=C(C(C)C)C(CC12)C1=C3C(=O)C=CC1=O (stereo not drawn) is ___
85 to 89 °C

Fill in: melting point of CC(C)C1=CC23CCC4C(C)(C(=O)O)CCCC4(C)C2CC1c1c(OCCC#N)ccc(OCCC#N)c13 (stereo not drawn) is ___
157 to 159 °C

Fill in: melting point of C#CCOC(=O)C1(C)CCCC2(C)C1CCC13C=C(C(C)C)C(CC12)c1c(O)cc2c(C(=O)OCC)c(C)[nH]c2c13 (stereo not drawn) is ___
98 to 100 °C
